- Procedure text: Anticonvulsive action, s.c. pentetrazol (PTZ), mouse i.p.
- Format: in vivo
- Run parameters: ip; mouse i.p., s.c. pentetrazol, 100 mg/kg; read-out: Action, % of the protected animals (PTZ)

- Molecule: "O=c1[nH]nnc2nn(Cc3ccccc3C(F)(F)F)cc12 [Compound 3]"
  responders at 100 mg/kg: "100%"
- Molecule: "O=c1[nH]nnc2nn(Cc3ccccc3)cc12 [Compound 12]"
  responders at 100 mg/kg: "0%"
- Molecule: "O=c1[nH]nnc2nn(Cc3ccccc3F)cc12 [Compound 1]"
  responders at 100 mg/kg: "66%"
- Molecule: "O=c1[nH]nnc2nn(Cc3cccc(C(F)(F)F)c3)cc12 [Compound 6]"
  responders at 100 mg/kg: "20%"
- Molecule: "NC(=O)N1c2ccccc2C=Cc2ccccc21 [Carbamazepine, reference compound]"
  responders at 100 mg/kg: "0%"
- Molecule: "O=c1[nH]nnc2nn(Cc3c(F)cccc3Cl)cc12 [Compound 9]"
  responders at 100 mg/kg: "100%"
